FYI, the data here is from ChEMBL document CHEMBL1201862.

test system: ACHN; test: NCI tumour cell line growth inhibition, 48 h
Calls of active or inactive are those of the source. Rule as the data show it: active = GI50 up to about 1.1 µM and inactive = higher.
Choose the fitting class; nothing outside 1 (active), 0 (inactive) is accepted.

**Query** Please let me know the test result on file for COC(=O)[C@@H](NC(=O)N(CCC#N)CCCN(C(=O)N[C@H](Cc1ccccc1)C(=O)OC)c1ccccc1)C(C)C .
**Result** 0

**Query** Please let me know the test result on file for CCc1nnc2sc(-c3ccc(-c4ccc(Cl)cc4Cl)o3)nn12 .
**Result** 0

**Query** Please let me know the test result on file for CS(=O)(=O)CCC1CCC(=O)O1 (configuration not stated) .
**Result** 0

**Query** Please let me know the test result on file for N#CC(C(=N/O)/C(=N\O)C(C#N)c1ccccc1)c1ccccc1 (configuration not stated) .
**Result** 0

**Query** Please let me know the test result on file for CC1(C)NC(C(=O)c2ccccc2)=[N+]([O-])C1(O)c1ccccc1 (configuration not stated) .
**Result** 0

**Query** Please let me know the test result on file for CN(CCO)c1nc2c(c(=O)[nH]1)CNCC2 .
**Result** 0

**Query** Please let me know the test result on file for Cc1ccc(C(C2C(=O)N(C)C(=O)N(C)C2=O)C(F)(F)C(=O)N(C)C)cc1 (configuration not stated) .
**Result** 0

**Query** Please let me know the test result on file for COC(=O)[C@@](C)(COC(=O)C(C)(C)C)NC(=O)OC(C)(C)C .
**Result** 0

**Query** Please let me know the test result on file for CC(C)(C)[Si](C)(C)OCC1OC(n2cc(I)c(=O)[nH]c2=O)C(O[Si](C)(C)C(C)(C)C)C1O[Si](C)(C)C(C)(C)C (configuration not stated) .
**Result** 0

**Query** Please let me know the test result on file for C/C(=C\Cc1cc(O)ccc1O)CCc1c(C)c(O)c(O)c(C=O)c1C [PANICEIN C] .
**Result** 0

**Query** Please let me know the test result on file for CS(=O)(=O)c1ccc(C2=C(c3ccccc3)C(=O)OC2)cc1 [ROFECOXIB] .
**Result** 0

**Query** Please let me know the test result on file for CCCNC1CC(n2cc(C)c(=O)[nH]c2=O)OC1CO (configuration not stated) .
**Result** 0

**Query** Please let me know the test result on file for CCOC(=O)N1c2ccccc2N(C(=O)OCC)C1CC(=O)/C=C/c1ccccc1 .
**Result** 0

**Query** Please let me know the test result on file for COc1cccc(OCC(=N/NC(=O)c2ccncc2)/N=C/c2cccnc2)c1 .
**Result** 0
